- measured.target: T1, human alpha CGRP (SEQ ID NO: 80) (human, not fully specified)
- T1 construct: also called human αCGRP; hαCGRP
- T1 peptide: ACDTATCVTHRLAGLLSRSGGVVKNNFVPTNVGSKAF
- experiment.notes: SPR, 37 C, mutein captured, CGRP analyte
Assign labels as follows, please: 1 for Kd below 0.04 nM; -1 for Kd equal to or exceeding 0.04 nM.

Previously resolved entries follow.
{"columns": ["binder", "label"],
 "data": [
  ["lipocalin mutein SEQ ID NO: 27 (designed binder, biotinylated by NHS chemistry for capture in SPR) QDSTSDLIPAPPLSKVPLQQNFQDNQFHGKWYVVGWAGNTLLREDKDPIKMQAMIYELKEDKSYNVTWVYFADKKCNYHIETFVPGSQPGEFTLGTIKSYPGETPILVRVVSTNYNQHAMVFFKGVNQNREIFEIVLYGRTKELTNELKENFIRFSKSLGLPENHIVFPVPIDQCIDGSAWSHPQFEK", 1],
  ["lipocalin mutein SEQ ID NO: 9 (designed binder, biotinylated by NHS chemistry for capture in SPR) QDSTSDLIPAPPLSKVPLQQNFQDNQFHGKWYVVGWAGNTLLREDKDPIKMQATIYELKEDKSYDVTWVYLSEKKCNYHIETSVPGSQPGEFTLGTIKSYPGETSILVRVVSTNYNQHAMVFFKGMSQNREIFEITLYGRTKELASELKENFIRFSKSLGLPENHIVFPVPIDQCIDGSAWSHPQFEK", -1],
  ["lipocalin mutein SEQ ID NO: 15 (designed binder, biotinylated by NHS chemistry for capture in SPR) QDSTSDLIPAPPLSKVPLQQNFQDNQFHGKWYVVGRAANDRLREDKDPEKMEATIYELKEDKSYNVTDVGFSRKKCIYVIHTFVPGSQPGEFTLGNIKSYPGTTSGLVRVVSTNYNQHAMVFFKVVGQNRESFEITLYGRTKELTSELKENFIRFSKSLGLPENHIVFPVPIDQCIDGSAWSHPQFEK", 1]
]}

Consider lipocalin mutein SEQ ID NO: 21 (designed binder, biotinylated by NHS chemistry for capture in SPR) QDSTSDLIPAPPLSKVPLQQNFQDNQFHGKWYVVGRAGNDALREDKDPEKMEATIYELKEDKSYNVTDVGFVQKKCMYVIHTFVPGSQPGEFTLGNIKSYPGVTSALIRVVNTNYNQHAMVFVKLVKQNRELFEITLYGRTKELTSELKENFIRFSKSLGLPENHIVFPVPIDQCIDGSAWSHPQFEK . Does its Kd lie strictly below 0.04 nM? 1

Consider lipocalin mutein SEQ ID NO: 16 (designed binder, biotinylated by NHS chemistry for capture in SPR) QDSTSDLIPAPPLSKVPLQQNFQDNQFHGKWYVVGRAGNDELREDKDPEKMEATIYELKEDKSYNVTDVGFVQKKCMYVIHTFVPGSQPGEFTLGNIKSYPGVTSGLVRVVSTNYNQHAMVFFKVVRQNRELFEITLYGRTKELTSELKENFIRFSKSLGLPENHIVFPVPIDQCIDGSAWSHPQFEK . Does its Kd lie strictly below 0.04 nM? -1

Consider lipocalin mutein SEQ ID NO: 20 (designed binder, biotinylated by NHS chemistry for capture in SPR) QDSTSDLIPAPPLSKVPLQQNFQDNQFHGKWYVVGRAGNDTLRKDKDPEKMEATIYELKEDKSYNVTDVGFVQKKCMYVIHTFVPGSQPGEFTLGNIKSYPGVTSALVRVVSTNYNQHAMVFVKLVKQNRELFEITLYGRTKELTSELKENFIRFSKSLGLPENHIVFPVPIDQCIDGSAWSHPQFEK . Does its Kd lie strictly below 0.04 nM? 1

Reference source: patent US20190338002A1
